# System: ATP;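 also: ATP exposure 15 min at 22 °C before imaging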
# ASSAY TEXT: switch fluorescence ratio, 500 uM ATP over buffer (Cy3 cluster intensity, sum of 5 cycles each) (fold (ratio)); higher = stronger signal-on switching upon ATP binding; sequences stand for … in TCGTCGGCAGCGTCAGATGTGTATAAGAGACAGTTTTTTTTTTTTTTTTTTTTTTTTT…TC
# CONDITION: aptamer strand: ATP DNA aptamer (quencher-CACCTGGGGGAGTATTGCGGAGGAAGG + anchor), 100 nM annealed; ATP concentration: 500 uM
The following sequences are shown together with reported switch fluorescence ratio values.

{"RESIDUE STRING": "ATGGTACCGT", "switch fluorescence ratio": 1.02}
{"RESIDUE STRING": "AAGTTTGCAT", "switch fluorescence ratio": 0.978}
{"RESIDUE STRING": "TGGGGGAGGA", "switch fluorescence ratio": 0.979}
{"RESIDUE STRING": "ACAGAAGATG", "switch fluorescence ratio": 1}
{"RESIDUE STRING": "GTGGGGAAGG", "switch fluorescence ratio": 1.02}
{"RESIDUE STRING": "CCGGAGATCC", "switch fluorescence ratio": 2.06}
{"RESIDUE STRING": "CGAACCGTCA", "switch fluorescence ratio": 1.08}
{"RESIDUE STRING": "GAAGGGAGGT", "switch fluorescence ratio": 0.987}
{"RESIDUE STRING": "ATAGGGGGGC", "switch fluorescence ratio": 1.01}
{"RESIDUE STRING": "CAAAGTACAA", "switch fluorescence ratio": 1.17}
{"RESIDUE STRING": "ACTCGGGTAC", "switch fluorescence ratio": 1.79}
{"RESIDUE STRING": "GGGGGCGTTG", "switch fluorescence ratio": 1.01}
{"RESIDUE STRING": "TACTTGGGC", "switch fluorescence ratio": 1.02}
{"RESIDUE STRING": "TTGGTAAAGG", "switch fluorescence ratio": 0.999}
{"RESIDUE STRING": "TCCAGGCTTT", "switch fluorescence ratio": 1.05}
{"RESIDUE STRING": "TCGTCGTTTG", "switch fluorescence ratio": 0.991}
{"RESIDUE STRING": "AGTAGGGGGT", "switch fluorescence ratio": 1.01}
{"RESIDUE STRING": "CAGAGTGGCA", "switch fluorescence ratio": 1.02}
{"RESIDUE STRING": "GGCCAAGGGT", "switch fluorescence ratio": 1.03}
{"RESIDUE STRING": "TTTAGGAAAA", "switch fluorescence ratio": 1}
{"RESIDUE STRING": "TTAAGTTAGC", "switch fluorescence ratio": 1.06}
{"RESIDUE STRING": "GCTTTGGGCA", "switch fluorescence ratio": 0.999}
{"RESIDUE STRING": "GGCTAGTACT", "switch fluorescence ratio": 1.01}
{"RESIDUE STRING": "GCGAATAGTT", "switch fluorescence ratio": 1.01}
{"RESIDUE STRING": "AGATAAAGGG", "switch fluorescence ratio": 1.03}
{"RESIDUE STRING": "TTGATTTGTC", "switch fluorescence ratio": 0.988}
{"RESIDUE STRING": "TGGGCGGGTT", "switch fluorescence ratio": 0.989}
{"RESIDUE STRING": "CCTTGTTTGG", "switch fluorescence ratio": 1.01}
{"RESIDUE STRING": "CTGGTCCGGC", "switch fluorescence ratio": 1.01}
{"RESIDUE STRING": "GATGGGTATT", "switch fluorescence ratio": 0.968}
{"RESIDUE STRING": "GGATCCTGCA", "switch fluorescence ratio": 1.04}
{"RESIDUE STRING": "CAGGGGTGCT", "switch fluorescence ratio": 1.03}
{"RESIDUE STRING": "CTTTGGAGAC", "switch fluorescence ratio": 1.06}
{"RESIDUE STRING": "ACCCGTACTT", "switch fluorescence ratio": 1.15}
{"RESIDUE STRING": "TACGTTTCT", "switch fluorescence ratio": 1}
{"RESIDUE STRING": "CGCATTAAGG", "switch fluorescence ratio": 1.11}
{"RESIDUE STRING": "TTATGATTTG", "switch fluorescence ratio": 1.02}
{"RESIDUE STRING": "TTGCTCAAGC", "switch fluorescence ratio": 0.999}
{"RESIDUE STRING": "ATGGGCTGGA", "switch fluorescence ratio": 1.04}
{"RESIDUE STRING": "ATAGTGCTGT", "switch fluorescence ratio": 0.977}
{"RESIDUE STRING": "CCTGAGGAGA", "switch fluorescence ratio": 1.03}
{"RESIDUE STRING": "ACTCTTATTG", "switch fluorescence ratio": 0.988}
{"RESIDUE STRING": "CAACATGTTT", "switch fluorescence ratio": 1.02}
{"RESIDUE STRING": "TAGGAAGGGT", "switch fluorescence ratio": 0.997}
{"RESIDUE STRING": "TTCAGACCGT", "switch fluorescence ratio": 1.02}
{"RESIDUE STRING": "GTGTTACTTT", "switch fluorescence ratio": 0.99}
{"RESIDUE STRING": "TGAATTTGTT", "switch fluorescence ratio": 0.995}
{"RESIDUE STRING": "GGGAAGGTGG", "switch fluorescence ratio": 1.04}
{"RESIDUE STRING": "TTTTGCCCCC", "switch fluorescence ratio": 1.12}
{"RESIDUE STRING": "GTTAATACCC", "switch fluorescence ratio": 1.04}
{"RESIDUE STRING": "TATTAGTTGC", "switch fluorescence ratio": 1}
{"RESIDUE STRING": "ATTTTTAAAC", "switch fluorescence ratio": 0.992}
{"RESIDUE STRING": "GCTGGATGGC", "switch fluorescence ratio": 0.993}
{"RESIDUE STRING": "GGCGACACGT", "switch fluorescence ratio": 1.03}
{"RESIDUE STRING": "GTTTATCATT", "switch fluorescence ratio": 0.982}
{"RESIDUE STRING": "TTGATGAAGA", "switch fluorescence ratio": 1.01}
{"RESIDUE STRING": "ATAATTATCG", "switch fluorescence ratio": 0.972}
{"RESIDUE STRING": "GAAGAGGGTG", "switch fluorescence ratio": 1.03}
{"RESIDUE STRING": "ATAGGTGAGA", "switch fluorescence ratio": 1.06}
{"RESIDUE STRING": "TGGGGCCGGG", "switch fluorescence ratio": 1.01}
{"RESIDUE STRING": "CGTGGATTCC", "switch fluorescence ratio": 1.03}
{"RESIDUE STRING": "AGTTTGGGCA", "switch fluorescence ratio": 0.975}
{"RESIDUE STRING": "ACAGTGTGGG", "switch fluorescence ratio": 1.05}
{"RESIDUE STRING": "TATCTCTACT", "switch fluorescence ratio": 1.03}
{"RESIDUE STRING": "TCGAAATCGG", "switch fluorescence ratio": 1.03}
{"RESIDUE STRING": "ACTGATAGAG", "switch fluorescence ratio": 1.02}
{"RESIDUE STRING": "ACGTTTAACT", "switch fluorescence ratio": 1.25}
{"RESIDUE STRING": "TTTGAGGGCT", "switch fluorescence ratio": 1.01}
{"RESIDUE STRING": "AATTTCCGAG", "switch fluorescence ratio": 1.17}
{"RESIDUE STRING": "GATGGAAACT", "switch fluorescence ratio": 1.01}
{"RESIDUE STRING": "GAAGTGGTTT", "switch fluorescence ratio": 0.997}
{"RESIDUE STRING": "TTGTCGGGCC", "switch fluorescence ratio": 0.964}
{"RESIDUE STRING": "GATCAAACGG", "switch fluorescence ratio": 1}
{"RESIDUE STRING": "TGTTAATGGG", "switch fluorescence ratio": 0.997}
{"RESIDUE STRING": "TATGGAATGT", "switch fluorescence ratio": 0.998}
{"RESIDUE STRING": "GAAATTCGAG", "switch fluorescence ratio": 1.01}
{"RESIDUE STRING": "TTTTTCGACG", "switch fluorescence ratio": 1.1}
{"RESIDUE STRING": "CGGTGCTATG", "switch fluorescence ratio": 1}
{"RESIDUE STRING": "TTCGTGGTTG", "switch fluorescence ratio": 0.967}

====

# Tested on: ATP;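 also: ATP exposure 15 min at 22 °C before imaging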
# ASSAY TEXT: switch fluorescence ratio, 500 uM ATP over buffer (Cy3 cluster intensity, sum of 5 cycles each) (fold (ratio)); higher = stronger signal-on switching upon ATP binding; sequences stand for … in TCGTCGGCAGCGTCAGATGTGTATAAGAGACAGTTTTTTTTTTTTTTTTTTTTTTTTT…TC
# CONDITION: aptamer strand: ATP DNA aptamer (quencher-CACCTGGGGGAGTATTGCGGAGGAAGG + anchor), 100 nM annealed; ATP concentration: 500 uM
# label = true if switch fluorescence ratio >= 1 else false

{"RESIDUE STRING": "TATTAATGCT", "LABEL": "true"}
{"RESIDUE STRING": "GTTAATTAGC", "LABEL": "true"}
{"RESIDUE STRING": "TAACTATTCC", "LABEL": "true"}
{"RESIDUE STRING": "TATTAAGTGC", "LABEL": "false"}
{"RESIDUE STRING": "CCTACTAGAT", "LABEL": "true"}
{"RESIDUE STRING": "CTCCACGGGA", "LABEL": "true"}
{"RESIDUE STRING": "TTATAGTATC", "LABEL": "false"}
